These entries and their values trace back to ChEMBL document CHEMBL3433997.

Each item that follows carries a reported inhibition.
system.tested: Hexose transporter 1 (Plasmodium falciparum) (UniProt O97467)
assay.protocol: ST_JUDE_LEISH: Cytotoxicity at 2uM final concentration against transgenic Leishmania Mexicana promastigotes LmPfHT that are glucose transport deficient and complemented with the Plasmodium falciparum hexose transporter. Activity is measured by DNA content using SYBR green in vitro
Type: functional

- molecule: "CC1=CC(=O)[C@@H](O)[C@]2(C)[C@H]3[C@@]4(O)OC[C@@]35[C@@H](C[C@@H]12)OC(=O)C[C@H]5[C@@H](C)[C@H]4O"
  system.tested: "Hexose transporter 1 (Plasmodium falciparum) (UniProt O97467)"
  inhibition [%]: 2.51
- molecule: "CN(c1cc(NC(=O)c2ccc(F)cc2)ccn1)C1CCN(Cc2ccc(C#N)cc2)CC1"
  system.tested: "Hexose transporter 1 (Plasmodium falciparum) (UniProt O97467)"
  inhibition [%]: 2.29
- molecule: "Cc1cccc2[nH]cc(C3CCN(CC4CCC(NC(=O)/C=C/c5ccc(Cl)c(Cl)c5)CC4)CC3)c12 (stereo not drawn)"
  system.tested: "Hexose transporter 1 (Plasmodium falciparum) (UniProt O97467)"
  inhibition [%]: 6.74
- molecule: "CC[C@H]1CN2CC[C@H]1C[C@H]2[C@H](O)c1cc(-c2ccccc2C(F)(F)F)nc2ccc(OC)cc12"
  system.tested: "Hexose transporter 1 (Plasmodium falciparum) (UniProt O97467)"
  inhibition [%]: 1.6
- molecule: "CC[C@H]1CN2CC[C@H]1C[C@@H]2[C@@H](OC(=O)c1ccc(Cl)cc1)c1ccnc2ccc(OC)cc12"
  system.tested: "Hexose transporter 1 (Plasmodium falciparum) (UniProt O97467)"
  inhibition [%]: 0.13
- molecule: "Cc1[nH]c2cc(F)ccc2c1C1=CCN(CCCCC2(C)C(=O)Nc3c(F)cccc32)CC1 (stereo not drawn)"
  system.tested: "Hexose transporter 1 (Plasmodium falciparum) (UniProt O97467)"
  inhibition [%]: 5.17
- molecule: "CN(c1cc(NC(=O)c2ccc(F)cc2)ccn1)C1CCN(Cc2cccc(F)c2)CC1"
  system.tested: "Hexose transporter 1 (Plasmodium falciparum) (UniProt O97467)"
  inhibition [%]: 6.07
- molecule: "COc1ccc(CC(C)NCC(O)c2ccc(Cl)c(Cl)c2)cc1 (stereo not drawn)"
  system.tested: "Hexose transporter 1 (Plasmodium falciparum) (UniProt O97467)"
  inhibition [%]: -0.07

###

system.tested: Hexose transporter 1 (Plasmodium falciparum)
assay.protocol: ST_JUDE_LEISH: Cytotoxicity at 2uM final concentration against transgenic Leishmania Mexicana promastigotes LmPfHT that are glucose transport deficient and complemented with the Plasmodium falciparum hexose transporter. Activity is measured by DNA content using SYBR green in vitro
Assay type: functional
# Lookup of reported inhibition keyed by entry

- compound: "c1ccc2c(NCCCCCCNc3c4ccccc4nc4ccccc34)c3ccccc3nc2c1"
  system.tested: "Hexose transporter 1 (Plasmodium falciparum)"
  inhibition [%]: 6.29
- compound: "COCCNCc1ccc(-c2ccc(CN(C(=O)Nc3ccccc3)C3CCN(Cc4ccccc4)CC3)cc2)cc1"
  system.tested: "Hexose transporter 1 (Plasmodium falciparum)"
  inhibition [%]: 4.93
- compound: "Cc1[nH]c2ccc(NS(C)(=O)=O)cc2c1C1CCN(CC2CCN(C(=O)/C=C/c3ccc(Cl)c(Cl)c3)CC2)CC1"
  system.tested: "Hexose transporter 1 (Plasmodium falciparum)"
  inhibition [%]: 1.08
- compound: "CCCc1cc([C@@H](O)[C@@H]2C[C@@H]3CCN2C[C@@H]3CC)c2ccccc2n1"
  system.tested: "Hexose transporter 1 (Plasmodium falciparum)"
  inhibition [%]: 3.99
- compound: "CC(C)CNCc1ccc(-c2ccc(CN(C(=O)Nc3ccccc3)C3CCN(Cc4ccccc4)CC3)cc2)cc1"
  system.tested: "Hexose transporter 1 (Plasmodium falciparum)"
  inhibition [%]: 2.41
- compound: "C/C=C1\\CN2CC[C@H]1C[C@@H]2[C@@H](O)c1ccnc2ccc(O)cc12"
  system.tested: "Hexose transporter 1 (Plasmodium falciparum)"
  inhibition [%]: 1.55
- compound: "CCCCCCCc1cc(O)c2c(c1)OC(C)(C)c1ccncc1-2"
  system.tested: "Hexose transporter 1 (Plasmodium falciparum)"
  inhibition [%]: 2.54
- compound: "C=C[C@H]1CN2CC[C@H]1C[C@H]2[C@H](O)c1cc(-c2ccc(Cl)cc2)nc2ccc(OC)cc12"
  system.tested: "Hexose transporter 1 (Plasmodium falciparum)"
  inhibition [%]: 1.72
- compound: "CC1(CCCCN2CC=C(c3c[nH]c4ccccc34)CC2)C(=O)Nc2ccccc21 (configuration not stated)"
  system.tested: "Hexose transporter 1 (Plasmodium falciparum)"
  inhibition [%]: -0.08
- compound: "O=C(NC1CCC(CN2CCC(c3c[nH]c4ccccc34)CC2)CC1)c1cc(-c2cccc(Cl)c2)n(-c2ccc(Cl)cc2Cl)n1 (configuration not stated)"
  system.tested: "Hexose transporter 1 (Plasmodium falciparum)"
  inhibition [%]: -0.46
- compound: "CC(C)N(C)C(=O)n1cnc(S(=O)(=O)C2CC3CCC2C3)n1 (configuration not stated)"
  system.tested: "Hexose transporter 1 (Plasmodium falciparum)"
  inhibition [%]: 1.45
- compound: "CC(C)C[C@H](Nc1ccc(C#N)c2ccccc12)C(=O)N[C@@H]1CCCc2ccccc21"
  system.tested: "Hexose transporter 1 (Plasmodium falciparum)"
  inhibition [%]: 1.88
- compound: "CCCC(=O)c1c(O)c2ccccc2oc1=O"
  system.tested: "Hexose transporter 1 (Plasmodium falciparum)"
  inhibition [%]: 7.19
- compound: "O=C(/C=C/c1ccc(Cl)c(Cl)c1)NCc1ccc(CN2CCC(c3c[nH]c4ccccc34)CC2)cc1"
  system.tested: "Hexose transporter 1 (Plasmodium falciparum)"
  inhibition [%]: 2.44
- compound: "O=C(c1cc(C(=O)NCc2ccc(Cl)cc2)c(=O)n(Cc2ccc(Cl)cc2)c1)c1cc(F)ccc1O"
  system.tested: "Hexose transporter 1 (Plasmodium falciparum)"
  inhibition [%]: 1.86
- compound: "CCN1CCC2(c3cccc(OC)c3)Cc3nc4ccccc4c(-c4ccccc4)c3CC2C1 (configuration not stated)"
  system.tested: "Hexose transporter 1 (Plasmodium falciparum)"
  inhibition [%]: 1.3
- compound: "CC[C@H]1CN2CC[C@H]1C[C@H]2[C@H](O)c1cc(N2CCCC2)nc2ccc(OC)cc12"
  system.tested: "Hexose transporter 1 (Plasmodium falciparum)"
  inhibition [%]: -1.79
- compound: "Oc1ccccc1CN1CCC(CCOC(c2ccccc2)c2ccc(Cl)cc2)CC1 (configuration not stated)"
  system.tested: "Hexose transporter 1 (Plasmodium falciparum)"
  inhibition [%]: 23.5
- compound: "CN(c1cc(NC(=O)c2ccc(F)cc2)ccn1)C1CCN(Cc2cccc(C#N)c2)CC1"
  system.tested: "Hexose transporter 1 (Plasmodium falciparum)"
  inhibition [%]: -2.19
- compound: "CC(Cc1ccc(OCCCCOc2ccccc2)cc1)NCCC1CCCN1C (configuration not stated)"
  system.tested: "Hexose transporter 1 (Plasmodium falciparum)"
  inhibition [%]: 97.7
- compound: "COc1ccc(C=CC(=O)N2CCC(CN3CCC(c4c[nH]c5ccccc45)CC3)CC2)cc1OC"
  system.tested: "Hexose transporter 1 (Plasmodium falciparum)"
  inhibition [%]: 0.91
- compound: "Cc1[nH]c2ccccc2c1C1=CCN(CCN2CCOc3c(Br)cccc3C2=O)CC1"
  system.tested: "Hexose transporter 1 (Plasmodium falciparum)"
  inhibition [%]: 1.57
- compound: "CS(=O)(=O)Nc1ccc2c(C3CCN(CC4CCN(C(=O)/C=C/c5ccc(Cl)c(Cl)c5)CC4)CC3)c[nH]c2c1"
  system.tested: "Hexose transporter 1 (Plasmodium falciparum)"
  inhibition [%]: 0.85
- compound: "Cc1[nH]c2ccccc2c1C1=CCN(CCCCCC23CCCc4cccc(c42)NC3=O)CC1 (configuration not stated)"
  system.tested: "Hexose transporter 1 (Plasmodium falciparum)"
  inhibition [%]: 2.47
- compound: "CC[C@H]1CN2CC[C@@H]1C[C@H]2[C@H](O)c1cc(N2CCCC(C)(C)C2)nc2ccc(OC)cc12"
  system.tested: "Hexose transporter 1 (Plasmodium falciparum)"
  inhibition [%]: -0.61
- compound: "Cc1cc(NC(=O)[C@@H](Nc2ccc(C#N)c3ccccc23)C2CCCCC2)ccc1F"
  system.tested: "Hexose transporter 1 (Plasmodium falciparum)"
  inhibition [%]: -0.16
- compound: "CCCCC/C=C/C(=O)NC1CCC(CN2CCC(c3c[nH]c4ccccc34)CC2)CC1 (configuration not stated)"
  system.tested: "Hexose transporter 1 (Plasmodium falciparum)"
  inhibition [%]: 2.43
- compound: "CN(C(=O)OCc1ccccc1)C1CCC(CCN2CCC3(CC2)C(=O)NCN3c2cccc(C(F)(F)F)c2)(c2ccccc2)CC1 (configuration not stated)"
  system.tested: "Hexose transporter 1 (Plasmodium falciparum)"
  inhibition [%]: 1.12
- compound: "COc1ccc2[nH]cc(C3CCN(Cc4ccc(NC(=O)c5ccc(-c6ccccc6)cc5)cc4)CC3)c2c1"
  system.tested: "Hexose transporter 1 (Plasmodium falciparum)"
  inhibition [%]: 2.27
- compound: "COc1ccc(CN2CCN(CCOC(c3ccccc3)c3ccccc3)CC2)c(O)c1"
  system.tested: "Hexose transporter 1 (Plasmodium falciparum)"
  inhibition [%]: 2.42
- compound: "CC(C)CNCc1ccc(-c2ccc(CN(C(=O)NC3CCCCC3)C3CCN(Cc4ccccc4)CC3)cc2)cc1"
  system.tested: "Hexose transporter 1 (Plasmodium falciparum)"
  inhibition [%]: 3.25
- compound: "CCOC(=O)c1c(C)n(C2CCCCCC2)c2cc(Br)c(O)cc12"
  system.tested: "Hexose transporter 1 (Plasmodium falciparum)"
  inhibition [%]: 0.67
- compound: "CCCCCCC(C)(C)c1cc(O)c2c3c(c(=O)oc2c1)CCN(Cc1ccccc1)C3"
  system.tested: "Hexose transporter 1 (Plasmodium falciparum)"
  inhibition [%]: 4.84
- compound: "c1ccc(C(OCCC2CCN(Cc3cccnc3)CC2)c2ccccc2)cc1"
  system.tested: "Hexose transporter 1 (Plasmodium falciparum)"
  inhibition [%]: 0.06
- compound: "O=C(/C=C/c1cccs1)NC1CCC(CN2CCC(c3c[nH]c4ccccc34)CC2)CC1 (configuration not stated)"
  system.tested: "Hexose transporter 1 (Plasmodium falciparum)"
  inhibition [%]: 5.22
- compound: "CSc1ccc(C[C@@H](C)NC[C@H](O)c2cccc(Cl)c2)cc1"
  system.tested: "Hexose transporter 1 (Plasmodium falciparum)"
  inhibition [%]: 1.34
- compound: "Cc1cc(NC(=O)[C@H](CC(C)C)Nc2ccc(C#N)c3ccccc23)ccc1F"
  system.tested: "Hexose transporter 1 (Plasmodium falciparum)"
  inhibition [%]: 2.4
